Reference for the values: paper PMC7509555

test: PAMPA permeability study; type: in vitro ADME; conditions: PAMPA; pH = 7; 5 h, room temperature; read-out: PAMPA effective permeability Pe
recorded metric: Papp at 5 h
Answer shape: numeric part, then the unit.

Q: I have this compound here, C=C(C)[C@H](CC=C(C)C)Cc1c(O)cc(OC)c2c1O[C@H](c1ccc(O)cc1O)CC2=O , and I need its recorded Papp at 5 h.
Ans: 2.14 ×10⁻⁶ cm/s

----------
target: UGT1A1 (Homo sapiens); construct: purchased BD Gentest Corp. (Woburn, MA, USA); test: Inhibition of recombinant UGT1A1-catalyzed 4-MU glucuronidation; format: in vitro ADME; conditions: human, recombinant UGT1A1, pH 7.4, probe 4-MU (110 μM); 100 μM kurarinone; 4-MU glucuronidation, recombinant UGT
recorded metric: inhibition at 60 min, 100 μM

Q: I have this compound here, C=C(C)[C@H](CC=C(C)C)Cc1c(O)cc(OC)c2c1O[C@H](c1ccc(O)cc1O)CC2=O , and I need its recorded inhibition at 60 min, 100 μM.
Ans: > 90%

----------
target: CYP1A2 (Rattus norvegicus, UniProt P04799); construct: tissue Research Institute for Liver Disease Co., Ltd. (Shanghai, China); host or cells: pooled rat liver microsomes; experiment: Inhibition of CYP1A2 activity (phenacetin O-deethylation) in RLMs; format: in vitro ADME; conditions: rat, rat liver microsomes, probe phenacetin 40 μM (O-deethylation); 100 μM kurarinone; 40 μM phenacetin; RLMs
Sequence (P04799 2-513): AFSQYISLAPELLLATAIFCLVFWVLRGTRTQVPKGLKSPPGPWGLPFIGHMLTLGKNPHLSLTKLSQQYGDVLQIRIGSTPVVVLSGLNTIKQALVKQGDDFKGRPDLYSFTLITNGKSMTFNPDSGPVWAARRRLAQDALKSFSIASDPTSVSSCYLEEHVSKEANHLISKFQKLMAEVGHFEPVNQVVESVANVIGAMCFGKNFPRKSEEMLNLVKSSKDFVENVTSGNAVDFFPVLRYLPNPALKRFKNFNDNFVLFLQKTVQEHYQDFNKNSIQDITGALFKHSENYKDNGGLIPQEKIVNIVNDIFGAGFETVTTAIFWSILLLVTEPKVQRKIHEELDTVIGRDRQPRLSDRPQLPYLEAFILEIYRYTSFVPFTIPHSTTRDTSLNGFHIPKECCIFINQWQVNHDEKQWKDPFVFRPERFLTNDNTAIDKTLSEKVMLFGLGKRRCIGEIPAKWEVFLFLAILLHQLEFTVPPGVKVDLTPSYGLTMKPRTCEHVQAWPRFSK
recorded metric: inhibition at 1 h, 100 μM

Q: I have this compound here, C=C(C)[C@H](CC=C(C)C)Cc1c(O)cc(OC)c2c1O[C@H](c1ccc(O)cc1O)CC2=O [Kurarinone] , and I need its recorded inhibition at 1 h, 100 μM.
Ans: > 90%

----------
Target: UniProt P22309
Assay: Inhibition of recombinant UGT1A1-catalyzed 4-MU glucuronidation
Conditions: second plot of slopes from Lineweaver–Burk plots
From the text: 4-MU, a nonspecific probe substrate for UGT isoforms, was used to explore the inhibition of UGT isoforms by kurarinone. […]
recorded metric: pKi
Give bare numbers, as −log10 of the molar value.

Q: I have this compound here, C=C(C)[C@H](CC=C(C)C)Cc1c(O)cc(OC)c2c1O[C@H](c1ccc(O)cc1O)CC2=O [Kurarinone] , and I need its recorded pKi.
Ans: 4.88

----------
target: UGT1A6 (Homo sapiens, UniProt P19224); construct: purchased BD Gentest Corp. (Woburn, MA, USA); assay: Inhibition of recombinant UGT1A6-catalyzed 4-MU glucuronidation; assay type: in vitro ADME; details: recombinant UGT1A6, pH 7.4, probe 4-MU (110 μM), 100 μM kurarinone, recombinant UGT
Sequence (P19224 27-532): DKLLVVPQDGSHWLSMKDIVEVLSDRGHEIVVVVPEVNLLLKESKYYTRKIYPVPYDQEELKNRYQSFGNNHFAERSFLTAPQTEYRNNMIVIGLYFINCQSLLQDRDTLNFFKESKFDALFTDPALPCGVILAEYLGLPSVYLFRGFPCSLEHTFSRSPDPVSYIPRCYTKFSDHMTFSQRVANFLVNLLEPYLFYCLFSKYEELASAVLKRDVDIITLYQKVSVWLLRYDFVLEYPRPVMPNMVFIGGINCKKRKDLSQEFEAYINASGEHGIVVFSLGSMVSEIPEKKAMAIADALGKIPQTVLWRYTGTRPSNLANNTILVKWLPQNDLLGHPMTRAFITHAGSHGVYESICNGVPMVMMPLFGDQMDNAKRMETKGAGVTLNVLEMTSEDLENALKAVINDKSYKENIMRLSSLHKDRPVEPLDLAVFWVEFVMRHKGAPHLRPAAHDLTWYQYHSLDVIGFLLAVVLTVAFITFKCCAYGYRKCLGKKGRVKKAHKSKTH
recorded metric: inhibition at 60 min, 100 μM

Q: I have this compound here, C=C(C)[C@H](CC=C(C)C)Cc1c(O)cc(OC)c2c1O[C@H](c1ccc(O)cc1O)CC2=O [Kurarinone] , and I need its recorded inhibition at 60 min, 100 μM.
Ans: > 90%

----------
biological target: UGT1A1 (Homo sapiens, UniProt P22309); experiment: Inhibition of recombinant UGT1A1-catalyzed 4-MU glucuronidation; conditions: recombinant UGT1A1, 4-MU glucuronidation; read-out: IC50 against UGT1A1
Sequence (P22309 26-533): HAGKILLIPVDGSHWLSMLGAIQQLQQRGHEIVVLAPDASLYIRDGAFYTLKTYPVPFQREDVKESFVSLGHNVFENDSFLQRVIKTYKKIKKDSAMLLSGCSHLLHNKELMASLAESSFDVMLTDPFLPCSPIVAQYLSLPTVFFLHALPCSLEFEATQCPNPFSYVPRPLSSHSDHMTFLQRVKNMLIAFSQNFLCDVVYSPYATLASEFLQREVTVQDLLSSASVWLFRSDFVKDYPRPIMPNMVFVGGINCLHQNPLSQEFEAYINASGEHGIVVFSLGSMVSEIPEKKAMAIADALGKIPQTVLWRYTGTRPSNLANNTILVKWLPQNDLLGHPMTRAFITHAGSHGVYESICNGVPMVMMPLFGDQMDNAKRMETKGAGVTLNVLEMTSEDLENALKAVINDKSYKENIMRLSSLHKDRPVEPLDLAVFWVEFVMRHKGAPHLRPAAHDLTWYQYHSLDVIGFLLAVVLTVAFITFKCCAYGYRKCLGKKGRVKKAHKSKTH
recorded metric: pIC50
One number for each entry, as −log10 of the molar value.

Q: I have this compound here, C=C(C)[C@H](CC=C(C)C)Cc1c(O)cc(OC)c2c1O[C@H](c1ccc(O)cc1O)CC2=O , and I need its recorded pIC50.
Ans: 4.87
